# System under test: cyclophilin
# Assay name: Cis-trans isomerase inhibitory activity (chymotrypsin-coupled Suc-AAPF-pNA cleavage, absorbance 390 nm)
# Assay type: biochemical
# Test parameters: read-out: Test Example 1: cis-trans isomerase inhibitory activity (IC50) group
pIC50: −log10 of the molar value.
Value kind: pIC50

# Molecule, pIC50
rows = [
    ("CCCCOC(=O)c1cnccc1C=Cc1ccc(CC(C)(C)C)cc1 [Compound 146]", "6.70 to 7.70"),
]

For the molecule shown here, CCCCOC(=O)c1cccc(C(=O)OCCCC)c1C=Cc1ccc(CC(C)(C)C)cc1 [Compound 149] , give the reported pIC50.
6.70 to 7.70

Ref: patent US11286228B2
